molecular target: T1, purified recombinant human α5β1 integrin heterodimer, 6×His tagged (rh-α5β1); Acro Biosystems, cat. no. … (human, UniProt P08648 42-995; P05556 21-728); assay: BLI (Octet), supernatant mAb on anti-mouse IgG Fc sensor, 20 nM rh-α5β1
T1 construct: bought recombinant heterodimer; also called rh-α5β1-6×His tagged protein; His-tagged-α5β1
T1 sequence (P08648 42-995 limits assumed, form in doubt, chain 1 of 2): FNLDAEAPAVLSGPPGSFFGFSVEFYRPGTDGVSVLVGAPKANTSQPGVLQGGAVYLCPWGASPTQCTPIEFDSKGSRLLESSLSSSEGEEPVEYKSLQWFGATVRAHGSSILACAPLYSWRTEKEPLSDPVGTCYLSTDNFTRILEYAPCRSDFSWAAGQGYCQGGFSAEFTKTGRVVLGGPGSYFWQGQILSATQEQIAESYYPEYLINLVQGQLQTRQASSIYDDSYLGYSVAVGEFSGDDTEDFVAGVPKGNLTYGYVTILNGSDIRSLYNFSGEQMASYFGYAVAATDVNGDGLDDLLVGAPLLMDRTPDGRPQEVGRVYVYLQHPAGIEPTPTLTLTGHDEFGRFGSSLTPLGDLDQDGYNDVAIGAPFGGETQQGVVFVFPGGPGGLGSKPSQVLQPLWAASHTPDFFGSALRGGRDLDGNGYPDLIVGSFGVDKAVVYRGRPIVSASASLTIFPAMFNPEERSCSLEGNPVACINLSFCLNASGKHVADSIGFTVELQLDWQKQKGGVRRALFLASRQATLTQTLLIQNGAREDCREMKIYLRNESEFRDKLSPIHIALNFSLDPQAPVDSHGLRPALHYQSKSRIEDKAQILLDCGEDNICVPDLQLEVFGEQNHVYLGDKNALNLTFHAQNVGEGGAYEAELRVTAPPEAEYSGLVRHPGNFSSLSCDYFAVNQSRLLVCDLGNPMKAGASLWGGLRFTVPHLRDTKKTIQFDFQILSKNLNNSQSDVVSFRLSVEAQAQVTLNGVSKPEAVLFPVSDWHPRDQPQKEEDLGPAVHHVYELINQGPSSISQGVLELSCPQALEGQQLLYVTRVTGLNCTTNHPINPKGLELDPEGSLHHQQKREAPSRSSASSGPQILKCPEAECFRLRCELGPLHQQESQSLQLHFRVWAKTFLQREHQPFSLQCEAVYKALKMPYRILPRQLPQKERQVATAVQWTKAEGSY
T1 sequence (P05556 21-728 limits assumed, form in doubt, chain 2 of 2): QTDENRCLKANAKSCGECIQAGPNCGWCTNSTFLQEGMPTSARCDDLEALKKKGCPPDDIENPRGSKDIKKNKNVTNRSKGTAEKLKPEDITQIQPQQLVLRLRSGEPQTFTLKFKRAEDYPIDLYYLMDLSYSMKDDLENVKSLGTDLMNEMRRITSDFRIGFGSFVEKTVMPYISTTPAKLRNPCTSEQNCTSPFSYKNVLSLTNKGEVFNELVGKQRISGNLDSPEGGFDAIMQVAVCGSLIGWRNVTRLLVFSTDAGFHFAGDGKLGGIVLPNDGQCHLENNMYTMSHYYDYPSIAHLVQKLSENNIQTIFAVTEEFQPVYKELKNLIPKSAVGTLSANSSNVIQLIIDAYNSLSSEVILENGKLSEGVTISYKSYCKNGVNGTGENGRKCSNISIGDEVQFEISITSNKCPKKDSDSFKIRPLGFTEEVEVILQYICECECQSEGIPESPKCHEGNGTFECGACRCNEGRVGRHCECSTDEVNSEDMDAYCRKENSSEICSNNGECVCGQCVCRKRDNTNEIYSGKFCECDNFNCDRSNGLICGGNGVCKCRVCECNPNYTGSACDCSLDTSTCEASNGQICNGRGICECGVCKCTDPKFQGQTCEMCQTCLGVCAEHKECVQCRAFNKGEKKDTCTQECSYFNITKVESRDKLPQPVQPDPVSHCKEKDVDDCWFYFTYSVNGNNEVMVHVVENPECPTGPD
pKd: −log10 of the molar value.
Listing of entries alongside the reported pKd.
Observation Type: pKd

>  <Binder>
A2-7F01 (antibody, V domains shown, mouse hybridoma antibody) VH: QVQLQQPGAELVKPGASVKLSCKASGYTFTIYWINWVKQRPGQGLEWIGNIYPGSSSTNYNEKFKTKATLTVDTSSSTAYMQLSSLTSDDSAVYYCAITGTGGFAYWGQGTLVTVSA VL: ENVLTQSPAIMSASLGEKVTMSCRASSSVNYMYWYQQKSDASPKLWIYFTSSLAPGVPTRFSGSGSGNSFSLTISSMEGEDAATYYCQQLTGSPFTFGSGTRLEIK

>  <Observation Type>
pKd

>  <Reported Measurement>
8.89

$$$$
>  <Binder>
A2-6C10 (antibody, V domains shown, mouse hybridoma antibody) VH: QVQLKESGPGLVAPSQSLSITCTISGFSLTTYGVHWVRQPPGKGLEWLVVIWSDGSTTYNSALKSRLNITKDNSKSQVFLKMNSLQTDDTAMYYCVRHGGLLRRDAMDYWGQGTSVTVSS VL: QIVLTQSPAIMSASLGERVTMTCTASSSVSSNSFHWYQQKPGSSPKLWLYSTSNLASGVPARFSGSGSGTSYSLTISSMEAEDAATYYCHQYLRSPPTFGGGTKLEIK

>  <Observation Type>
pKd

>  <Reported Measurement>
8.46

$$$$
>  <Binder>
A-3A08 (antibody, V domains shown, mouse hybridoma antibody) VH: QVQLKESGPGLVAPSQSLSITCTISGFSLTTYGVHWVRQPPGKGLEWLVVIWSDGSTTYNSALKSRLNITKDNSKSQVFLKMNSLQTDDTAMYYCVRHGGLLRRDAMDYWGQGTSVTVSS VL: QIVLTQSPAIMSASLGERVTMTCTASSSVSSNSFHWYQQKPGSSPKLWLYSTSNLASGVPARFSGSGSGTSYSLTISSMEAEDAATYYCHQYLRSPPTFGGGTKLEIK

>  <Observation Type>
pKd

>  <Reported Measurement>
8.29

$$$$
>  <Binder>
A-11G01 (antibody, V domains shown, mouse hybridoma antibody) VH: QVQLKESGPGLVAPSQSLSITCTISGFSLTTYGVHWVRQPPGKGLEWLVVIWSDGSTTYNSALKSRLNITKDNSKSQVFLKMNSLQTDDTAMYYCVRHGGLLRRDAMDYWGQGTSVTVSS VL: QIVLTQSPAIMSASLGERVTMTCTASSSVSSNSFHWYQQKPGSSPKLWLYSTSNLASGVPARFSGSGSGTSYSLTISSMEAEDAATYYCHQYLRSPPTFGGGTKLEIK

>  <Observation Type>
pKd

>  <Reported Measurement>
8.30

$$$$
>  <Binder>
A-7D06 (antibody, V domains shown, mouse hybridoma antibody) VH: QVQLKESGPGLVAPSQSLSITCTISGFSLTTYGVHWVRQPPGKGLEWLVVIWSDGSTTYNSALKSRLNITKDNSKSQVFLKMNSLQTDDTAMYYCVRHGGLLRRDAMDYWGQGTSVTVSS VL: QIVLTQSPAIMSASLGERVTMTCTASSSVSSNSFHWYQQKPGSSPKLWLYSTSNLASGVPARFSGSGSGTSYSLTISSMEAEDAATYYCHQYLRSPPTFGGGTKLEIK

>  <Observation Type>
pKd

>  <Reported Measurement>
8.32

$$$$
>  <Binder>
A-15H11 (antibody, V domains shown, mouse hybridoma antibody) VH: QVQLQQPGAELVKPGASVKLSCKASGYTFTIYWINWVKQRPGQGLEWIGKIYPGSISTDYNEKFKSKATLTVDTSSSTAYMQLSSLTSDDSAVYYCAITGTGGLAYWGQGTLVTVSA VL: ENVLTQSPAIMSASLGEKVTMTCRASSSVNYMYWYQQKSDASPKLWIYFTSSLAPGVPGRFSGSGSGNSYSLTISTMEGEDAATYYCQQFTTSPFTFGSGTKLEIK

>  <Observation Type>
pKd

>  <Reported Measurement>
9.05

$$$$
